- procedure_details: Encapsulation efficiency of lipid nanoparticles (Quant-it RiboGreen RNA Assay)
- Type: physicochemical
- condition_summary: lipid nanoparticles with luciferase mRNA
observation_type: Encapsulation efficiency (%)
Answers are plain numbers, in %.

Known results for molecules:
CCCCCCCCCC(=O)OCC(C)(C)CCCCCN(CCCCO)CCCCCCC(=O)OCC(CCCCCCCC)CCCCCCCC [69b] ... 93.85
CCCCCCCCCCC(=O)OCC(C)(C)CCCCCN(CCO)CCCCCCCCC(=O)OCC(CCCCCCC)CCCCCCC [87b] ... 94.16
CCCCCCCCCCOC(=O)CCCCCN(CCO)CCCCCCC(C)(C)C(=O)OC(CCCCCCC)CCCCCCC [23a] ... 96.30

I would be grateful if you could provide Encapsulation efficiency (%) for each of the following entries.
1. CCCCCCCCCCC(=O)OCC(C)(C)CCCCCN(CCCCO)CCCCCCC(=O)OCC(CCCCCCCCC)CCCCCCCCC [78b]
2. CCCCCCCCCC(=O)OCC(C)(C)CCCCCN(CCO)CCCCCCCC(=O)OCCCCC(CCCC)CCCC [12b]
3. CCCCCCCCCCC(=O)OCCC(C)(C)CCCCN(CCO)CCCCCCCC(=O)OCC(CCCCCCCC)CCCCCCCC [99b]
4. CCCCCCCCCCCOC(=O)OCCCCCN(CCO)CCCCCC(C)(C)COC(=O)CC(CCCCCCC)CCCCCCC [28b]
5. CCCCCCCCCC(=O)OCC1(CCCCCN(CCCCCCCC(=O)OCC(CCCCCCC)CCCCCCC)C(=O)SCCCN(C)C)CC1 [43b]

92.27
91.04
92.70
96.19
95.26

----------
- procedure_details: Particle size and PDI of lipid nanoparticles by dynamic light scattering
- Format: physicochemical
- condition_summary: lipid nanoparticles with luciferase mRNA; ionizable lipid/cholesterol/DSPC/DMG-PEG2000 50/38.5/10/1.5 mol%
Please use True whenever Particle-size distribution (PDI) is not below 0.1, and False whenever it is.

CCCCCCCCCCOC(=O)OCCCCCCN(CCCCO)CCCCCC(C)(C)COC(=O)CC(CCCCCCC)CCCCCCC [30b] ... False
CCCCCCCCCSC(=O)CCCCCCCN(CCO)CCCCCCC(C)(C)C(=O)OC(CCCCCCCC)CCCCCCCC [52a] ... False
CCCCCCCCCC(=O)OCCCC(C)(C)CCCN(CCO)CCCCCCCCC(=O)OCC(CCCCCC)CCCCCC [111b] ... True
CCCCCCCCCCOC(=O)CCCCC(C)(C)CCN(CCCCCCCC(=O)OC(CCCCCCCCC)CCCCCCCCC)C(=O)SCCCCN(C)C [60a] ... True
CCCCCCCCCC(=O)OCC1(CCCCCN(CCCCO)CCCCCCCC(=O)OC(CCCCCCCC)CCCCCCCC)CC1 [15b] ... False
CCCCCCCCCCOC(=O)OCCCCCCN(CCO)CCCCCCC(C)(C)C(=O)OC(CCCCCCCCC)CCCCCCCCC [48a] ... True

Is the recorded value of Particle-size distribution (PDI) equal to or greater than 0.1 for this compound? CCCCCCCCCC(=O)OCC(C)(C)CCCCCN(CCO)CCCCCCCC(=O)OC(CCCCCCCCC)CCCCCCCCC [51b] True

----------
- procedure_details: Particle size and PDI of lipid nanoparticles by dynamic light scattering
- Type: physicochemical
- condition_summary: lipid nanoparticles with luciferase mRNA; ionizable lipid/cholesterol/DSPC/DMG-PEG2000 50/38.5/10/1.5 mol%
observation_type: Particle size (nm)
Numbers only, in nm.

CCCCCCCCCC(=O)OCC(C)(C)CCCCCN(CCCCO)CCCCCCOC(=O)OCC(CCCCCCCC)CCCCCCCC [35b] ... 100.40
CCCCCCCCCOC(=O)OCCCCCCN(CCO)CCCCCCC(C)(C)C(=O)OCC(CCCCCCC)CCCCCCC [33a] ... 111.60
CCCCC/C=C\C/C=C\CCCCCCCCC(CCCCCCCC/C=C\C/C=C\CCCCC)OC(=O)CCCN(C)C [MC3, DLin-MC3-DMA, reference compound] ... 96.83
CCCCCCCCCCC(=O)OCCCC(C)(C)CCCN(CCO)CCCCCCCCC(=O)OCC(CCCCCCC)CCCCCCC [96b] ... 97.75
CCCCCCCCCOC(=O)OCCCCCCN(CCCO)CCCCCCC(C)(C)C(=O)OC(CCCCCCCC)CCCCCCCC [32a] ... 129.00

Field: next molecule
What value of Particle size (nm) has been recorded for this entry: CCCCCCCCCC(=O)OCCCC(C)(C)CCCN(CCO)CCCCCCCCC(=O)OCC(CCCCCC)CCCCCC [111b] 187.13
